Measured values drawn from the antibiotic and cytotoxicity screens of Wong et al. (2023) for this set.

System: HepG2
Experiment: cytotoxicity call (relative viability < 0.9)
Conditions: 10 µM
The campaign covered roughly 39,000 compounds. About 3,300 (8.5%) were called active. For the sample, actives were picked, then their nearest neighbours and some compounds at random.
// one of class 1 for active, class 0 for inactive, no free text

C[C@@H]1CN([C@H](C)CO)C(=O)Cc2cc(NC(=O)Nc3cccc4ccccc34)ccc2O[C@H]1CN(C)Cc1ccc(C(=O)Nc2ccccc2N)cc1    class 0
COc1cccc(NC(=O)C[C@@H]2CC[C@H]3[C@@H](COc4ccc(NC(=O)C5CCOCC5)cc4C(=O)N3C)O2)c1    class 0
O=C(C[C@@H]1C[C@@H]2c3cc(NC(=O)Nc4ccccc4F)ccc3O[C@@H]2[C@@H](CO)O1)NCc1ccc(Oc2ccccc2)cc1    class 1
O=C(C[C@@H]1C[C@@H]2c3cc(NC(=O)NC4CCCC4)ccc3O[C@@H]2[C@H](CO)O1)NCc1ccc(Oc2ccccc2)cc1    class 0
C[C@H](CO)N1C[C@H](C)[C@H](CN(C)Cc2ccc(C(=O)Nc3ccccc3N)cc2)Oc2ccc(NC(=O)Nc3cccc4ccccc34)cc2CC1=O    class 1
O=C(C[C@H]1C[C@@H]2c3cc(NC(=O)NC4CCCC4)ccc3O[C@@H]2[C@H](CO)O1)NCc1ccc(Oc2ccccc2)cc1    class 1
O=C(C[C@H]1C[C@H]2c3cc(NC(=O)Nc4ccccc4F)ccc3O[C@H]2[C@H](CO)O1)NCc1ccc(Oc2ccccc2)cc1    class 0
O=C(C[C@@H]1C[C@H]2c3cc(NC(=O)NC4CCCC4)ccc3O[C@H]2[C@@H](CO)O1)NCc1ccc(Oc2ccccc2)cc1    class 0
COc1ccc(CNC(=O)C[C@@H]2C[C@@H]3c4cc(NC(=O)NC5CCCC5)ccc4O[C@@H]3[C@@H](CO)O2)cc1    class 0
C[C@@H]1CN([C@H](C)CO)C(=O)Cc2cc(NC(=O)Nc3ccc(F)cc3)ccc2O[C@@H]1CN(C)Cc1ccc(C(=O)Nc2ccccc2N)cc1    class 1

Give the logged outcome of this assay for the following molecule: C[C@H](CO)N1C[C@H](C)[C@@H](CN(C)Cc2ccc(C(=O)Nc3ccccc3N)cc2)Oc2ccc(NC(=O)Nc3ccccc3)cc2CC1=O class 0

What is the recorded call for this molecule in the test? O=C(C[C@@H]1C[C@H]2c3cc(NC(=O)NC4CCCC4)ccc3O[C@H]2[C@H](CO)O1)NCc1ccc(Oc2ccccc2)cc1 class 0

Answer briefly: the call reported for C[C@@H]1CN([C@@H](C)CO)C(=O)c2cc(NC(=O)CCN3CCOCC3)ccc2O[C@H]1CN(C)C(=O)Nc1ccc(F)cc1 in this assay. class 0

Returns: the outcome recorded for Cc1noc(C)c1S(=O)(=O)N(C)C[C@H]1OCCCC[C@H](C)Oc2ccc(NC(=O)Nc3ccc(C(F)(F)F)cc3)cc2C(=O)N([C@H](C)CO)C[C@@H]1C in this assay. class 0
